# EXPERIMENTAL PROTOCOL: chemical genetic growth profiling, strain panel (AID 1159580);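 note: tested at 20 µM; growth read once vehicle control cultures reached saturation at 30 °C; 1 = growth at the plate median or of vehicle wells; lower values mean less growth of the strain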
# RECORDED CONDITIONS: S. cerevisiae deletion strains, growth OD, locus YMR223W, strain ubp8, active compounds read low
Out of some 5,500 compounds screened, about 2,000 (36%) were called active. Inconclusive results (about 18%) are left out. This is one part of the list.

| MOLECULE | normalized growth |
| --- | --- |
| COC(=O)c1c(Cl)c(Cl)c(C(=O)OC)c(Cl)c1Cl | 1 |
| COc1cc(OC)c2c(c1)OC(c1ccccc1)CC2=O (stereo not given) | 0.983 |
| O=C1C[C@@H](c2ccc(O)cc2)Oc2cc(O)cc(O)c21 | 1.01 |
| CCCCOc1ccc(CC(=O)NO)cc1 | 1 |
| CCc1ccc(CCOc2ccc(CC3SC(=O)NC3=O)cc2)nc1 (stereo not given) | 0.995 |
| COc1ccc2c(c1)C1(C)CCC(=O)CC1CC2 (stereo not given) | 0.975 |
| Cc1c(N(C)C)c(=O)n(-c2ccccc2)n1C | 1.02 |
| CC[C@@H](CO)NCCN[C@@H](CC)CO | 1.02 |
| CC(=O)OCC(CCn1cnc2cnc(N)nc21)COC(C)=O | 0.988 |
| CN1Cc2c(ccc3c2OCO3)C2C(O)Cc3cc4c(cc3C21)OCO4 (stereo not given) | 0.998 |

Values were extracted from PubChem BioAssay AID1159580.
